test system: Hs-578T; assay: NCI tumour cell line growth inhibition, 48 h
Active and inactive are the calls of the source. Rule as the data show it: active = GI50 up to about 1.1 µM and inactive = higher. Residues, ends and D or L forms follow the SMILES beside them. *: point of attachment. Pentanoyl = CCCCC(=O)*; Boc = CC(C)(C)OC(=O)*
Assign GI50 to each entry below.

Example results:
compound: O=C1c2cccc(NCCCNCCO)c2C(=O)c2cccc(NCCCNCCO)c21
test-target: Hs-578T
GI50: 0.627 µM (active)

compound: O=C(O)c1ccccc1CC(Cc1ccccc1)C(=O)O (centres undefined)
test-target: Hs-578T
GI50: > 100 µM (inactive)

compound: C(=N\c1ccc(-c2nc3ccccc3[nH]2)cc1)/c1ccco1
test-target: Hs-578T
GI50: > 100 µM (inactive)

compound: S=C1NC(c2ccccc2)NC(c2ccccc2)S1 (centres undefined)
test-target: Hs-578T
GI50: > 100 µM (inactive)

compound: CCCCC(=O)Oc1ccc(CC(NC(=O)OC(C)(C)C)C(=O)NC(C)C(=O)NC(Cc2ccccc2)C(=O)NCC(N)=O)cc1 (centres undefined) (Boc-Y(Pentanoyl)AFG-NH2; configuration not given here)
test-target: Hs-578T
GI50: 34.6 µM (inactive)

For every item below, please supply its GI50.
1. CN(C)CCC(=O)N1C/C(=C\c2ccc(Cl)c(Cl)c2)C(=O)/C(=C/c2ccc(Cl)c(Cl)c2)C1
2. CN(C)c1ccc2oc(=O)c3ccccc3c2c1
3. CC(C)(C)C1=C(Br)C(OC(=O)C(F)(F)F)(C(C)(C)C)OP1(=O)c1ccccc1 (centres undefined)

Reply |
0.257 µM (active)
31.7 µM (inactive)
23.7 µM (inactive)

For every item below, please supply its GI50.
1. CC(C)c1cc(C(C)C)c(S(=O)(=O)N/N=C2\CC3CCC2(C)C3(C)C)c(C(C)C)c1 (centres undefined)
2. C=CC(COC(=O)C(C)(C)OC(C)=O)c1ccc(OC(=O)C(C)C)c(OC)c1 (centres undefined)
3. O=[N+]([O-])c1ccc(/C=N/CC2CCCN3CCCCC23)cc1 (centres undefined)
4. Cc1cccc(/C=N/NC(=S)NC(C)(C)C)n1
5. N#C[BH2-][n+]1ccc(C(=O)NNCc2ccccc2)cc1

Reply |
1: 29.7 µM (inactive); 2: 7.46 µM (inactive); 3: > 100 µM (inactive); 4: > 100 µM (inactive); 5: > 100 µM (inactive)

For every item below, please supply its GI50.
1. COC(=O)C(Cc1ccccc1)NS(=O)(=O)c1ccc(-c2c3nc(c(-c4ccc(S(=O)(=O)NC(Cc5ccccc5)C(=O)OC)cc4)c4ccc([nH]4)c(-c4ccc(S(=O)(=O)NC(Cc5ccccc5)C(=O)OC)cc4)c4nc(c(-c5ccc(S(=O)(=O)NC(Cc6ccccc6)C(=O)OC)cc5)c5ccc2[nH]5)C=C4)C=C3)cc1 (centres undefined)
2. COc1c2c3c4c(c(OC)c(=O)c5c(O)cc(OC)c(c6c(OC)cc(O)c(c1=O)c63)c54)C(C(C)O)C2C(C)=O (centres undefined)
3. COC(=O)[C@@H]1CS(=O)(=O)C(C(C)C)N1C(C)=O (some centres undefined)

Reply |
1. 17.1 µM (inactive)
2. 0.593 µM (active)
3. > 100 µM (inactive)

###

test system: SNB-75; experiment: NCI tumour cell line growth inhibition, 48 h
The source made the active and inactive calls. Cut-off read from the data, not from the text of the source: active = GI50 up to about 1.1 µM and inactive = higher. Residues, ends and D or L forms follow the SMILES beside them. *: point of attachment. Pentanoyl = CCCCC(=O)*; Boc = CC(C)(C)OC(=O)*
I would appreciate it if you answered using one of these outcomes: active, inactive

compound: CCCCC(=O)Oc1ccc(CC(NC(=O)OC(C)(C)C)C(=O)NC(C)C(=O)NC(Cc2ccccc2)C(=O)NCC(N)=O)cc1 (centres undefined) (Boc-Y(Pentanoyl)AFG-NH2; configuration not given here)
assigned-label: inactive

Ask | Write down the call the test reported for this compound. Item: CC(=O)Nc1ccc(C2CC(c3ccc([N+](=O)[O-])cc3)=Nc3ccccc3S2)cc1 (centres undefined)
Reply | inactive

Ask | Write down the call the test reported for this compound. Item: C/C(=N\NS(=O)(=O)c1ccc(C)cc1)c1ccccn1
Reply | inactive

Ask | Write down the call the test reported for this compound. Item: CCC12CCC[C@@]13C=C[C@H](O3)C(C)(C)C2=O (some centres undefined)
Reply | inactive

Ask | Write down the call the test reported for this compound. Item: CN(Cc1cnc2nc(N)nc(N)c2n1)c1ccc(C(=O)NC(CCC(=O)NC(P(=O)(O)O)P(=O)(O)O)C(=O)O)cc1 (centres undefined)
Reply | inactive

Ask | Write down the call the test reported for this compound. Item: COC(=O)C(CNC(=O)/C=C/c1ccc(OC)c(OC)c1)NC(=O)/C=C/c1ccc(OC)c(OC)c1 (centres undefined)
Reply | inactive

Ask | Write down the call the test reported for this compound. Item: O=C(c1ccccc1)c1ccc2c(c1)N=C(c1ccc(Cl)c(Cl)c1)CC(c1ccc3ccccc3c1)N2 (centres undefined)
Reply | inactive

Ask | Write down the call the test reported for this compound. Item: COC(=O)[C@@H]1C2OC(C)(C)OC2CN1C(=O)OCc1ccccc1 (some centres undefined)
Reply | inactive

Ask | Write down the call the test reported for this compound. Item: CN(C)CCOc1ccc2[nH]c(C(=O)N3CC(CCl)c4ccc(N)cc43)cc2c1 (centres undefined)
Reply | active

Ask | Write down the call the test reported for this compound. Item: CCCCCCCCC(C)CCCCCCCCC(=O)OCC(COP(=O)([O-])OCC[N+](C)(C)C)OC(=O)CCCCCCCCC(C)CCCCCCCC (centres undefined)
Reply | inactive

Ask | Write down the call the test reported for this compound. Item: COC(=O)c1sc(=S)sc1SCc1cccc(CSc2sc(=S)sc2C(=O)OC)c1
Reply | inactive

Ask | Write down the call the test reported for this compound. Item: CC1=C(C(=O)Nc2c(C)cccc2C)C(c2ccccc2Cl)C(C(=O)Nc2c(C)cccc2C)=C(C)N1
Reply | inactive

Ask | Write down the call the test reported for this compound. Item: CC(C)(C)C1=C(Br)C(OC(=O)C(F)(F)F)(C(C)(C)C)OP1(=O)c1ccccc1 (centres undefined)
Reply | inactive

Ask | Write down the call the test reported for this compound. Item: C=CCCC1(C)CCCNC1=S (centres undefined)
Reply | inactive

Ask | Write down the call the test reported for this compound. Item: CC1(C)C2CC(O)C1(C)CC2=O (centres undefined)
Reply | inactive

###

tested on: Malme-3M; experiment: NCI tumour cell line growth inhibition, 48 h
Calls of active or inactive are those of the source. Cut-off read from the data, not from the text of the source: active = GI50 up to about 1.1 µM and inactive = higher.
measured-metric: GI50

Example results:
compound: O=C(O)c1ccccc1CC(Cc1ccccc1)C(=O)O (configuration not stated)
GI50: > 100 µM (inactive)
--
compound: C/C(=N\Nc1ccc([N+](=O)[O-])cc1[N+](=O)[O-])c1sc(-n2nc(-c3ccccc3)cc2-c2ccccc2)nc1C
GI50: 76.7 µM (inactive)
--
compound: C=CC(COC(=O)C(C)(C)OC(C)=O)c1ccc(OC(=O)C(C)C)c(OC)c1 (configuration not stated)
GI50: 2.7 µM (inactive)
--
compound: CN(C)CCNCc1c2ccccc2c(CNCCN(C)C)c2ccccc12
GI50: 18.4 µM (inactive)
--
compound: [N-]=[N+]=C1CNC(=O)NC1=O
GI50: > 100 µM (inactive)
--
compound: COC(=O)C(C)Sc1nc2cc(Cl)ccc2s1 (configuration not stated)
GI50: > 100 µM (inactive)
--
compound: COc1cccc(C23CCN(C)C(CC(O)C2)C3)c1OC (configuration not stated)
GI50: > 100 µM (inactive)
--
compound: O=C(/C=C/c1ccccc1)/C=N/N1C(=S)N(c2ccccc2)C(=N\c2ccccc2)/C1=N/c1ccccc1
GI50: > 100 µM (inactive)
--
compound: Cc1cc(S(=O)(=O)Nc2nnc3cnc4ccccc4n23)c(S)cc1Cl
GI50: > 100 µM (inactive)
--
compound: Cc1c(/C=N/NC(=S)Nc2ccccc2Cl)c(=O)n(-c2ccccc2)n1C
GI50: 32.7 µM (inactive)

For every item below, please supply its GI50.
1. COc1cc2c(cc1OC)[C@@](C)(C(O)C(O)C(C)(C)O)NCC2 (some centres not stated)
2. O=C(O)CCC(NC(=O)c1ccc(Nc2nc3ccc(C(F)(F)F)cc3nc2-c2ccccc2)cc1)C(=O)O (configuration not stated)
3. Nc1ccc(Oc2ccc(C34CC5CC(C3)CC(c3ccc(Oc6ccc(N)cc6C(F)(F)F)cc3)(C5)C4)cc2)c(C(F)(F)F)c1
4. CCN(CC)CCC(=O)c1ccc(C)cc1
5. O=C(Nc1cccc2c1[nH]c1c(-c3ccccc3)nccc12)c1ccccc1[N+](=O)[O-]
6. N#Cc1cc(-c2nc3c(F)cccc3s2)ccc1N
7. C1=C(c2ccccc2)O[C@H](COCc2ccccc2)C(OCc2ccccc2)[C@@H]1OCc1ccccc1 (some centres not stated)

Reply |
["> 100 µM (inactive)", "> 100 µM (inactive)", "22.2 µM (inactive)", "23 µM (inactive)", "> 100 µM (inactive)", "88.9 µM (inactive)", "> 10 µM (inactive)"]

For every item below, please supply its GI50.
1. CCC12CCC[C@@]13C=C[C@H](O3)C(C)(C)C2=O (some centres not stated)
2. COc1ccc(NC(=O)C(=O)C2CNC(=O)NC2=O)c(OC)c1 (configuration not stated)
3. S=C1NC(c2ccccc2)NC(c2ccccc2)S1 (configuration not stated)
4. O=[N+]([O-])c1cc(Cl)ccc1OCc1ccccc1

Reply |
1. > 100 µM (inactive)
2. > 100 µM (inactive)
3. > 100 µM (inactive)
4. 99.3 µM (inactive)

response.value for CCC(C(=O)O)c1ccc(OCc2ccccc2)cc1 (configuration not stated) (field: GI50) = > 100 µM (inactive)
